Catalogue of kynurenine production readings, one per entry.
System: MDA-MB-231
Method description: kynurenine production, fold change vs DMSO IFNg/TNF control; higher = more kynurenine produced (less inhibition)
Measurement setup: pre-treatment time: 18 h then 24 h IFNg/TNF
Just the number.

Illustrative cases are given below, each with its answer.
{"Molecule": "CN1C2CCC1CC(O)C2 (centres undefined) [Tropine] (compound dose: 10 uM)", "kynurenine production": 0.902}
{"Molecule": "C=C1CCC2C(/C=C(\\C)C(=O)C3(OC(C)=O)CC(C)C(OC(=O)c4ccccc4)C3C1OC(C)=O)C2(C)C (centres undefined) [Euphorbia factor L3] (compound dose: 10 uM)", "kynurenine production": 0.89}
{"Molecule": "COc1ccc2c(c1O)-c1c(O)c(OC)cc3c1[C@H](C2)N(C)CC3 [Corytuberine] (compound dose: 10 uM)", "kynurenine production": 0.889}

Consider the additional molecule presented here.
// CC1=C[C@@H]2C(=O)[C@]3(C=C(C)[C@H](O)[C@@]3(O)[C@@H]1O)[C@H](C)C[C@@H]1[C@H]2C1(C)C [20-Deoxyingenol] (compound dose: 10 uM) : kynurenine production value = 0.703
